# subject_of_test: Follistatin-related protein 3 (Homo sapiens) (UniProt O95633)
# Sequence (O95633 whole entry, looked up): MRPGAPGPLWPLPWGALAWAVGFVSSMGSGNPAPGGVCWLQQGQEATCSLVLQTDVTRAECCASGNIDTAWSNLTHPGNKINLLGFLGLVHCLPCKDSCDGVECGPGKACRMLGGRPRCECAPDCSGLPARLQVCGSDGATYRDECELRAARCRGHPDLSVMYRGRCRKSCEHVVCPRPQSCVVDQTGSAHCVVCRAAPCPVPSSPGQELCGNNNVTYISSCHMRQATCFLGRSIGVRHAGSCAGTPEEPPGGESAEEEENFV
# protocol_notes: FSTL3 binders on small-molecule microarrays, primary screen, biochemical, small-molecule microarray, 635 nm fluorescence (AID 1105);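 note: score merges emission near 667 nm and signal to noise per printed spot across three slides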
# assay_conditions: FSTL3 binding, higher = more signal
Lab note: compare composite z-score against 0.3. Equal or greater, write satisfied. Smaller, write not satisfied.

Quick check, composite z-score >= 0.3? "C[N+](C)(C)CCCC[C@@H]1NC(=O)[C@@H]2C[C@H](C(=O)O)[C@H](c3ccc(O)cc3)N2C1=O" not satisfied

Quick check, composite z-score >= 0.3? O=C1OCCC=C[C@H]2OC34C=CCN(c5ccc(Cl)cc5)C(=O)[C@H]3N(CCCCCO)C(=O)[C@@H]4C12 (stereo not given in full) not satisfied

Quick check, composite z-score >= 0.3? "CO[C@H]1O[C@H](CO)[C@@H](OC(=O)Nc2ccc(Oc3ccccc3)cc2)[C@H](OC(=O)Nc2ccccc2-c2ccccc2)[C@@H]1OC(=O)Nc1ccccc1-c1ccccc1" satisfied

Quick check, composite z-score >= 0.3? [N-]=[N+]=NCc1ccccc1C[C@]1(C(=O)NCC(O)CO)N=C(c2ccc(OCCCO)cc2)O[C@H]1c1ccccc1CN=[N+]=[N-] (stereo not given in full) not satisfied

Quick check, composite z-score >= 0.3? "C=CC[C@@]1(C(=O)N2CCCCC2)N=C(c2ccc(OCCCO)cc2)O[C@@H]1c1ccccc1" not satisfied

Quick check, composite z-score >= 0.3? "CCOC(=O)C[C@H]1[C@H](OC(=O)c2ccc(-c3ccccc3)cc2)[C@@H](NC(=O)C2CCCCC2)c2cc(OCCCO)ccc2N1C(=O)c1ccccc1" satisfied

Quick check, composite z-score >= 0.3? "Cc1ccc(F)cc1S(=O)(=O)N[C@@H]1CCN(Cc2ccc(Oc3ccccc3)cc2)C1" satisfied

Quick check, composite z-score >= 0.3? "Cc1ccc(S[C@]2(C(=O)NCCN3CCOCC3)CC(=O)N(Cc3ccccc3C(F)(F)F)[C@@H]2c2ccc(CO)cc2I)cc1" not satisfied

Quick check, composite z-score >= 0.3? "Cc1ccc(S[C@]2(C(=O)O)CC(=O)N(Cc3ccccc3Cl)[C@@H]2c2ccc(CO)cc2)cc1" not satisfied

Quick check, composite z-score >= 0.3? "COC(=O)c1c(CC[C@@H](CO)NC(=O)N[C@H](Cn2cc(-c3ccccc3C)nn2)C(C)C)oc(C(C)=O)c1C(=O)OC" not satisfied

Quick check, composite z-score >= 0.3? "COc1c(C)cc(-c2cc3c(c(-c4ccccc4)n2)[Si](C(C)C)(C(C)C)OC3)cc1C" not satisfied

Quick check, composite z-score >= 0.3? O=C1NC(=O)C2C1C=CC(C(O)c1c(F)cccc1Cl)N2Nc1ccccn1 (stereo not given) not satisfied

Quick check, composite z-score >= 0.3? COc1ccc(C(O)C2C=CC3C(=O)N(c4ccccc4)C(=O)C3N2Nc2ccccc2)cc1OCc1ccccc1 (stereo not given) satisfied

Quick check, composite z-score >= 0.3? "CN(C)CCCCNC(=O)[C@H]1C[C@H]2C(=O)N[C@@H](CCCCN(C)C)C(=O)N2[C@H]1c1cccc(OCCO)c1" satisfied

Quick check, composite z-score >= 0.3? "C[n+]1ccc(CCCO)cc1" not satisfied

* * *

# protocol_notes: PSAC antagonists in infected red cells, primary screen, cell-based, P. falciparum Indochina, OD700, 2 h (AID 1155);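 note: lysis reports solute entry through the parasite surface anion channel PSAC; channel blockers reduce lysis of infected cells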
# assay_conditions: P. falciparum Indochina infected erythrocytes, osmotic lysis OD700, called active from +8 up or from −8 down
Calls of active or inactive are those of the source.
The reply should be one of these categories: active, inactive

Write down the call the test reported for this compound. Item: "C=C[C@H](COC(C)=O)NS(=O)(=O)c1ccc(Br)cc1" inactive

Write down the call the test reported for this compound. Item: "O=C(CS)NCCCCCCNC(=O)[C@H]1C[C@H]2C(=O)N[C@@H](Cc3ccccc3)C(=O)N2[C@H]1c1cccc(OCCO)c1" inactive

Write down the call the test reported for this compound. Item: COc1ccc(NN2C(C(O)c3ccco3)C=CC3C(=O)N(C4CCCCC4)C(=O)C32)cc1 (stereo unspecified) inactive

Write down the call the test reported for this compound. Item: "C=CC[C@@]12N=C(c3ccc(OCCCO)cc3)O[C@@H]1c1ccccc1N(CCS(=O)(=O)c1ccccc1)C2=O" active

Write down the call the test reported for this compound. Item: "COCCCNC(=O)[C@@]1(Sc2ccc(C)cc2)CC(=O)N(C2Cc3ccccc3C2)[C@@H]1c1ccc(CO)cc1I" inactive

Write down the call the test reported for this compound. Item: "COCCCNC(=O)[C@@]1(Sc2ccc(C)cc2)CC(=O)N(Cc2cc(C(F)(F)F)cc(C(F)(F)F)c2)[C@@H]1c1ccc(CO)cc1" inactive

Write down the call the test reported for this compound. Item: "CC(C)CNC(=O)[C@@]1(c2ccc([N+](=O)[O-])cc2)CC(=O)N(C2CCCCC2)[C@@H]1c1ccc(CO)cc1I" inactive

Write down the call the test reported for this compound. Item: "CO[C@H]1O[C@H](CO)[C@@H](OC(=O)Nc2ccc(C(F)(F)F)cc2)[C@H](OC(=O)Nc2ccc3c(c2)OCO3)[C@H]1OC(=O)Nc1ccc2c(c1)OCO2" inactive

Write down the call the test reported for this compound. Item: "CCCNC(=O)[C@@]1(c2ccc([N+](=O)[O-])cc2)CC(=O)N(C2CCCCC2)[C@@H]1c1ccc(CO)cc1I" inactive

Write down the call the test reported for this compound. Item: "COC(=O)[C@@]1(Cc2ccc(OC)cc2)[C@H]2c3cc(C(=O)N4CCCC4)n(CCc4cc5ccccc5[nH]4)c3C[C@H]2CN1C(=O)c1ccccc1" inactive

Write down the call the test reported for this compound. Item: "NC(=O)NCC#Cc1ccc2c(c1)[C@]1(C(=O)N2)[C@H](C(=O)O)[C@H]2C(=O)O[C@H](c3ccccc3)[C@H](c3ccccc3)N2[C@@H]1c1ccccc1OCCO" inactive
